# Study Target: human GLP1-R (SNAP-GLP-1R expressed in HEK293 cells) (human) (UniProt P43220)
# Sequence (P43220 24-463): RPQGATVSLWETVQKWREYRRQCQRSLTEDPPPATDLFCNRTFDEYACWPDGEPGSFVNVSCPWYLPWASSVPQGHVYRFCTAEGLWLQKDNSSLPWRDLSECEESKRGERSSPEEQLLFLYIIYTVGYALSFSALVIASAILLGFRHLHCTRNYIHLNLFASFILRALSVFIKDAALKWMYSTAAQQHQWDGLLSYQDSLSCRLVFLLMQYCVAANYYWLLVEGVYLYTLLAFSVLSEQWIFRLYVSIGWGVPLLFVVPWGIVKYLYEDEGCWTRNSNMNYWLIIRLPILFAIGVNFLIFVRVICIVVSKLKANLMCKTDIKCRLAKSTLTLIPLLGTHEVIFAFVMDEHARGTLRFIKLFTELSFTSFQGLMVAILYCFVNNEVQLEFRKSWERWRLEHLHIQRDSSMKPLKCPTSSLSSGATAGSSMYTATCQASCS
# Protocol Summary: cell-based or functional assay
Starred links: 1 amine or outer side, 2 acyl side, 3 side chain; linkers in the order of their positions; H or OH if unused. Non-standard residues stand in square brackets, D forms with d. Groups on a side chain read outwards from the residue. No end group written: not given here. *: point of attachment. C18 diacid = O=C(O)CCCCCCCCCCCCCCCCC(=O)*; γGlu = O=C(O)[C@H](CCC(=O)[*:2])N[*:1]; αMeL = CC(C)C[C@](C)(N)C(=O)O; Dab = NCC[C@H](N)C(=O)O; AEEA = NCCOCCOCC(=O)O; Aib = CC(C)(N)C(=O)O
Kindly supply the reported Internalization % TOP values for the records listed here.
Respond with the figure and its unit, in that order.

Illustrative cases are given below, each with its answer.
Binder	Internalization % TOP
YXQGTFTSDFSKXLDKKAQXAFIEYLLEXGPSSGAPPPGEG (synthetic construct; SITE 2: note = 2-Aminoisobutyric Acid; SITE 13: note = alpha-methyl-leucine; SITE 17: note = Lysine is chemically modified through conjugation of the epsilon-amino group of the Lysine side chain with (2-[2-(2-Amino-ethoxy)-ethoxy]-acetyl)2-(gamma-Glu)-CO-(CH2 )18-CO2H; SITE 20:) [Example 55]	70.7%
YXQGTFTSDFSKXLDKKAQXAFIEYLLAGGPSSGEPPPSGEX (not fully specified; synthetic construct; SITE 2: note = 2-Aminoisobutyric Acid; SITE 13: note = alpha-methyl-leucine; SITE 17: note = Lysine is chemically modified through conjugation of the epsilon-amino group of the Lysine side chain with (2-[2-(2-Amino-ethoxy)-ethoxy]-acetyl)-(gamma-Glu)-CO-(CH2) 18-CO2H; SITE 20: n) [Example 33]	64.6%
Y[Aib]QGTFTSDFS[Dab][αMeL]LDKK([AEEA-γGlu-C18 diacid])AQ[Aib]AFIEYLLEGGPSSGAPPPGGS-NH2 [Example 67]	31.1%
YXQGTFTSDFSKXLDKKAQXAFIEYLLAGGPSSGAPPPSGE (synthetic construct; SITE 2: note = 2-Aminoisobutyric Acid; SITE 13: note = alpha-methyl-leucine; SITE 17: note = Lysine is chemically modified through conjugation of the epsilon-amino group of the Lysine side chain with (2-[2-(2-Amino-ethoxy)-ethoxy]-acetyl)-(gamma-Glu)-CO-(CH2) 18-CO2H; SITE 20: n) [Example 11]	73.8%
YXQGTFTSDFSXXLDKKAQXAFIEYLLAGGPSSGEPPPEGE (synthetic construct; SITE 2: note = 2-Aminoisobutyric Acid; SITE 12: note = L-ornithine; SITE 13: note = alpha-methyl-leucine; SITE 17: note = Lysine is chemically modified through conjugation of the epsilon-amino group of the Lysine side chain with (2-[2-(2-Amino-ethoxy)-ethoxy]-acetyl)-(gamma-Glu)) [Example 98]	49.3%

Now for the binder whose Internalization % TOP we want.
Looking up YXQGTFTSDFSKXLDKKAQXAFIEYLLAGGPSSGAPPPSGG (synthetic construct; SITE 2: note = 2-Aminoisobutyric Acid; SITE 13: note = alpha-methyl-leucine; SITE 17: note = Lysine is chemically modified through conjugation of the epsilon-amino group of the Lysine side chain with (2-[2-(2-Amino-ethoxy)-ethoxy]-acetyl)-(gamma-Glu)-CO-(CH2) 18-CO2H; SITE 20: n) [Example 12] , I see its Internalization % TOP listed as 75.3%

Numbers sourced from patent US20240270821A1.
